measurementProtocol: xn = mol fraction of the nth substance listed, in the solute-free solvent
conditionContext: 323.15 K; x2 = 0.06974
reportedProperty: solubility (g/100 g solution)

• Cc1[nH]c(=O)c(C#N)cc1-c1ccncc1 + CC(C)O + O = 0.00604
• Nc1cccc(S(=O)(=O)c2cccc(N)c2)c1 + CC(C)O + O = 0.874
• CN1CCN(C2=Nc3cc(Cl)ccc3Nc3ccccc32)CC1 + CC(C)O + O = 0.166
• Nc1nccnc1Cl + CC(C)O + O = 0.402

1: c1ccc2[nH]c(-c3cscn3)nc2c1 + CC(C)O + O
2: c1ccc2[nH]c(-c3cscn3)nc2c1 + CCCO + O
When their solubility (g/100 g solution) values are compared, which is larger, 1 or 2 ? Your choice should be expressed through its label. 2

----------
measurementProtocol: xn = mol fraction of the nth substance listed, in the solute-free solvent
conditionContext: 288.15 K; x2 = 0.2812
reportedProperty: solubility (g/100 g solution)

Here's what some known entries look like.
- COc1cc2c(cc1OC)-c1cc3ccc(OC)c(OC)c3c[n+]1CC2.[Cl-] + CCO + O: 1.89
- CC(C)OC(=O)C(C)NP(=O)(OCC1OC(n2ccc(=O)[nH]c2=O)C(C)(F)C1O)Oc1ccccc1 (centres undefined) + CCO + O: 12.2

P: Nc1cccc(S(=O)(=O)c2cccc(N)c2)c1 + CCO + O
Q: Cc1[nH]c(=O)c(C#N)cc1-c1ccncc1 + CCO + O
Lab note: record which item had the higher solubility (g/100 g solution), P or Q . Your choice should be expressed through its label. P

----------
measurementProtocol: xn = mol fraction of the nth substance listed, in the solute-free solvent
conditionContext: 318.15 K; x2 = 0.7788
reportedProperty: solubility (g/100 g solution)

* CC(C)OC(=O)C(C)NP(=O)(OCC1OC(n2ccc(=O)[nH]c2=O)C(C)(F)C1O)Oc1ccccc1 (centres undefined) + CCO + O | 51.6

A: Cc1[nH]c(=O)c(C#N)cc1-c1ccncc1 + CCO + O
B: COc1cc2c(cc1OC)-c1cc3ccc(OC)c(OC)c3c[n+]1CC2.[Cl-] + CCO + O
C: Nc1cccc(S(=O)(=O)c2cccc(N)c2)c1 + CCO + O
Reorder the items by solubility (g/100 g solution), least to greatest. Use the labels to give the ranking in the order requested. A, C, B

----------
Items are presented alongside their recorded solubility (g/100 g solution).
measurementProtocol: xn = mol fraction of the nth substance listed, in the solute-free solvent
conditionContext: 293.15 K; x2 = 0.6
Just the number.

• CC(N)C(=O)O (configuration not stated) + O + CCCO = 0.742
• OCCN(CCO)c1nc(N2CCCCC2)c2nc(N(CCO)CCO)nc(N3CCCCC3)c2n1 + CCO + O = 5.48
• CC(N)C(=O)O (configuration not stated) + O + CCO = 0.66
• S=c1[nH]ncs1 + CC(C)=O + O = 27.3
• Cc1ncc(C[n+]2csc(CCO)c2C)c(N)n1.O=[N+]([O-])[O-] + O + CO = 1.77

Determine its reported solubility (g/100 g solution): S=c1[nH]ncs1 + CO + O 9.72

Determine from records and report solubility (g/100 g solution) for CC(N)C(=O)O (configuration not stated) + O + CO 1.53

Cited source: the CheMixHub drug solubility set
